The reported measurements were obtained from the Immune Epitope Database (IEDB).

Target: HLA-A*69:01
Assay: IEDB peptide-MHC binding, purified MHC/direct/fluorescence; filed as Kd, often an IC50 or EC50 that approximates it; bounds were set here for any values at or beyond the usual limits of such assays
Conditions: source organism: Salmonella enterica subsp. enterica serovar Typhi
readoutKind: Kd

Challenge: Write down Kd measured for item LPLIVDTAA
Response given: ≥ 20 µM

---

Target: HLA-A*26:01
Assay: IEDB peptide-MHC binding, purified MHC/direct/fluorescence; filed as Kd, often an IC50 or EC50 that approximates it; bounds were set here for any values at or beyond the usual limits of such assays
Details: source organism: Toxoplasma gondii RH
readoutKind: Kd

Challenge: Write down Kd measured for item LTMNLVSDI
Response given: ≥ 20 µM
